Hey, just so you know, these numbers are from patent US20170166555A1.

Test system: SK-N-SH neuroblastoma cells
Assay: Anti-proliferative assay, cell-titre luminescent reagent, 72 h (GVK-BIO)
Assay type: cell-based
Settings: Homo sapiens, SK-N-SH, 30, 10, 3, 1, 0.3 and 0.1 μM, nonlinear regression (Table 5)

[
  {
    "Compound": "Cc1c(C)n(CCCN2CCN(C)CC2)c2ccc(C(=O)N3CCN(CCc4ccc(O)cc4)CC3)cc12 [Compound 4122]",
    "IC50": "> 30 µM"
  },
  {
    "Compound": "Cc1c(C)n(CCCN(C)C)c2ccc(C(=O)N3CCN(CCc4ccc(O)cc4)CC3)cc12 [Compound 4119]",
    "IC50": "> 30 µM"
  },
  {
    "Compound": "Cc1c(C)n(CCCN2CCN(C)CC2)c2ccc(C(=O)N3CCN(CCc4cccc(O)c4)CC3)cc12 [Compound 4126]",
    "IC50": "> 30 µM"
  }
]
